Numbers sourced from paper PMC9246096.

Hi there, I'd appreciate the recorded Ki for every entry that follows.
- system_name: E. faecium γ-CA (Efγ-CA) (Enterococcus faecium)
- Sequence (Q3XX77 entry or part of it): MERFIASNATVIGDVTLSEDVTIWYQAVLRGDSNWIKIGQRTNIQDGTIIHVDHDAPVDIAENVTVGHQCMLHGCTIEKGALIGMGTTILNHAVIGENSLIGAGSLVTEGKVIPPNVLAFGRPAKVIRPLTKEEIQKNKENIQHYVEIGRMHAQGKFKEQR
- method_summary: biochemical
- Assay type: biochemical
- conditions_used: recombinant Efγ-CA; Ki from IC50 via Cheng–Prusoff; read-out: Ki Efγ-CA
- Method: Both Efα-CA and Efγ-CA were recombinantly expressed and purified as follows. A pHis2 plasmid (GenScript) containing either the Efα-CA sequence or Efγ-CA sequence was used for the expression of hexa-histidine tagged protein in a bacterial culture. […] Starter cultures were grown at 37 °C with shaking at 225 rpm overnight. […] Fractions that contained the desired protein, as determined by SDS-PAGE, were combined and subjected to TEV protease for His-tag cleavage. […]
Your answer is read as nM, so omit the unit and give the number.

Let me check: CC1(C(=O)Nc2nnc(S(N)(=O)=O)s2)CCCCC1 [Cmpd 12] , system E. faecium γ-CA (Efγ-CA) (Enterococcus faecium), measured Ki is 240

Let me check: NS(=O)(=O)c1nnc(NC(=O)CC2CCCC2)s1 [Cmpd 17] , system E. faecium γ-CA (Efγ-CA) (Enterococcus faecium), measured Ki is 233

Let me check: NS(=O)(=O)c1nnc(NC(=O)C2CCC2)s1 [Cmpd 9] , system E. faecium γ-CA (Efγ-CA) (Enterococcus faecium), measured Ki is 286

Let me check: CC(C)CC(=O)Nc1nnc(S(N)(=O)=O)s1 [Cmpd 5] , system E. faecium γ-CA (Efγ-CA) (Enterococcus faecium), measured Ki is 279

Let me check: CC(=O)Nc1ncc(S(N)(=O)=O)s1 [Cmpd 29] , system E. faecium γ-CA (Efγ-CA) (Enterococcus faecium), measured Ki is 1130

Let me check: NS(=O)(=O)c1nnc(NC(=O)CCC2CCCC2)s1 [Cmpd 19] , system E. faecium γ-CA (Efγ-CA) (Enterococcus faecium), measured Ki is 245

Let me check: NS(=O)(=O)c1nnc(NC(=O)C2CCCC2)s1 [Cmpd 10] , system E. faecium γ-CA (Efγ-CA) (Enterococcus faecium), measured Ki is 195

Let me check: CC(C)(C)CC(=O)Nc1nnc(S(N)(=O)=O)s1 [Cmpd 6] , system E. faecium γ-CA (Efγ-CA) (Enterococcus faecium), measured Ki is 389

Let me check: NS(=O)(=O)c1nnc(NC(=O)CC2CCC2)s1 [Cmpd 16] , system E. faecium γ-CA (Efγ-CA) (Enterococcus faecium), measured Ki is 408

Let me check: NS(=O)(=O)c1nnc(NC(=O)C2CC2)s1 [Cmpd 8] , system E. faecium γ-CA (Efγ-CA) (Enterococcus faecium), measured Ki is 193

Let me check: NS(=O)(=O)c1nnc(NCc2ccccc2)s1 [Cmpd 28] , system E. faecium γ-CA (Efγ-CA) (Enterococcus faecium), measured Ki is 282

----------
- system_name: E. faecium α-CA (Efα-CA) (Enterococcus faecium)
- Sequence (Q3XYE8 entry or part of it): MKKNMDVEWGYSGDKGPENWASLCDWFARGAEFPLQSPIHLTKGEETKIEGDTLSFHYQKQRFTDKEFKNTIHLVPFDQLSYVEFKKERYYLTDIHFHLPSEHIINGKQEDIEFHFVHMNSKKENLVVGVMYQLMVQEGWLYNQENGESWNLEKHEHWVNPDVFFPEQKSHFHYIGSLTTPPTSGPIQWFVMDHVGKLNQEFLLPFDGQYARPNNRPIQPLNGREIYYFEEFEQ
- Assay type: biochemical
- conditions_used: read-out: Ki Efα-CA; recombinant Efα-CA; Ki from IC50 via Cheng–Prusoff
Hi there, I'd appreciate the recorded pKi for every entry that follows.
Remember the convention: pKi equals -log10 of concentration in molar.

The recorded pKi for CN1CCN(CC(=O)Nc2nnc(S(N)(=O)=O)s2)CC1 [Cmpd 25] is 7.09

The recorded pKi for NS(=O)(=O)c1nnc(NCC2CCCCC2)s1 [Cmpd 27] is 6.93

The recorded pKi for CC(C)(C)C(=O)Nc1nnc(S(N)(=O)=O)s1 [Cmpd 3] is 7.53

The recorded pKi for NS(=O)(=O)c1nnc(NC(=O)CC2CCCCC2)s1 [Cmpd 18] is 7.84

The recorded pKi for CCNc1nnc(S(N)(=O)=O)s1 [Cmpd 26] is 6.78

The recorded pKi for NS(=O)(=O)c1nnc(NC(=O)C2CCCCC2)s1 [Cmpd 11] is 7.31

The recorded pKi for CCC(=O)Nc1nnc(S(N)(=O)=O)s1 [Cmpd 1] is 7.43

The recorded pKi for CCCC(=O)Nc1nnc(S(N)(=O)=O)s1 [Cmpd 4] is 7.30

The recorded pKi for CC(C)C(=O)Nc1nnc(S(N)(=O)=O)s1 [Cmpd 2] is 7.63
